Consider the following compounds; for each one, report its TGI.
Test system: SK-OV-3 ovarian
PROCEDURE TEXT: NCI tumour cell line growth inhibition, 48 h
Where a SMILES comes first, the peptide text is derived from it. [ ]: non-standard residue; d: D form. Hiv = CC(C)[C@H](O)C(=O)O

Query string: Please give the measured TGI for this compound: O=c1oc2c/c(=C\c3ccccn3)c(=O)c3cccc1c3-2
Result string: > 100 µM

Query string: What value of measured TGI is listed for Cc1ccc(N=NC(C2=NC(=O)CS2)c2nc3ccccc3[nH]2)cc1 (stereo not given) ?
Result string: > 100 µM

Query string: Which TGI value is on record for O=c1[nH]c(SCc2ccccc2[N+](=O)[O-])nc2nc[nH]c12 ?
Result string: > 100 µM

Query string: Tell me the measured TGI of CC(C)[C@@H]1OC(=O)[C@@H](C)NC(=O)[C@@H]2CCCN2C1=O (cyclo([Hiv]-Pro-[dA])) , please.
Result string: > 100 µM

Query string: Could you share which TGI value was measured for N#CCC1(c2ccc(Cl)cc2)NC(=O)c2ccccc21 (stereo not given) ?
Result string: > 100 µM
